src = patent US20210139484A1

target: human HPK1 protein (Homo sapiens); construct: recombinant human HPK1 protein (a.a. 1-346) was expressed in Sf9 insect cells; GST (N); purchased Signalchem M23-11G; host or cells: Sf9 insect cells (baculovirus); experiment: Human HPK1 protein TR-FRET assay; format: biochemical; settings: 1 mM ATP, Table 19
Sequence (Q92918 1-346): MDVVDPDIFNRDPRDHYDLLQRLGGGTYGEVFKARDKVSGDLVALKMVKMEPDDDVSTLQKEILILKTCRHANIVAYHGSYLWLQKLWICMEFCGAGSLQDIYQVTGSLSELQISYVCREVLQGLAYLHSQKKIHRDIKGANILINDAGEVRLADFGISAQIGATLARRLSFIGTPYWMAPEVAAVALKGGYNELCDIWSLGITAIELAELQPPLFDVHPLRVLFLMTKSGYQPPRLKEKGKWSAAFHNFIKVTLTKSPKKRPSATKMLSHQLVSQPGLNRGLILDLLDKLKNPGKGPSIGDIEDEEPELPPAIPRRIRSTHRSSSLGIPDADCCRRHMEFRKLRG
pIC50: −log10 of the molar value.
The entries below come with measured pIC50 values attached.

Please review the following examples before continuing.
CCN1CCN(Cc2ccc(NC(=O)N3CCc4ccc(Oc5ncnn6cc(F)cc56)cc4C3)cc2C(F)(F)F)CC1 = > 6.30
CCN1CCN(Cc2ccc(NC(=O)N3CCc4ccc(Oc5ccnc6[nH]c(C7(O)COC7)cc56)cc4[C@@H]3C)cc2C(F)(F)F)CC1 = > 6.30

So for Cc1cc2c(Oc3ccc4c(c3)CN(C(=O)Nc3cnc(OC5CCN(C)CC5O)c(C(F)(F)F)c3)CC4C)ccnc2[nH]1 (stereo not shown) , the logged pIC50 turned out to be > 6.30

molecule CCN1CCN(Cc2ccc(NC(=O)N3CCc4ccc(Oc5ccnc6[nH]c(CCOC)cc56)cc4[C@@H]3C)cc2C(F)(F)F)CC1 , pIC50 observed: > 6.30

pIC50 for CCN1CCN(Cc2ccc(NC(=O)N3CCc4cc(Oc5ccnc6[nH]ccc56)ccc4C3)cc2C(F)(F)F)CC1 is 5.30 to 6.30

Lookup result for CCN1CCN(Cc2ccc(NC(=O)N3CCc4ccc(Oc5ncnn6cc(C)cc56)cc4C3)cc2C(F)(F)F)CC1 ; measured pIC50: > 6.30

Please fill in: pIC50 reported for CCN1CCN(Cc2ccc(NC(=O)N3CCc4ncc(Oc5ncnc6[nH]c(C)cc56)cc4C3C)cc2C(F)(F)F)CC1 (stereo not shown) = 5.30 to 6.30
